- assayed.target: LATS1 (Homo sapiens)
- Sequence (O95835 1-1130): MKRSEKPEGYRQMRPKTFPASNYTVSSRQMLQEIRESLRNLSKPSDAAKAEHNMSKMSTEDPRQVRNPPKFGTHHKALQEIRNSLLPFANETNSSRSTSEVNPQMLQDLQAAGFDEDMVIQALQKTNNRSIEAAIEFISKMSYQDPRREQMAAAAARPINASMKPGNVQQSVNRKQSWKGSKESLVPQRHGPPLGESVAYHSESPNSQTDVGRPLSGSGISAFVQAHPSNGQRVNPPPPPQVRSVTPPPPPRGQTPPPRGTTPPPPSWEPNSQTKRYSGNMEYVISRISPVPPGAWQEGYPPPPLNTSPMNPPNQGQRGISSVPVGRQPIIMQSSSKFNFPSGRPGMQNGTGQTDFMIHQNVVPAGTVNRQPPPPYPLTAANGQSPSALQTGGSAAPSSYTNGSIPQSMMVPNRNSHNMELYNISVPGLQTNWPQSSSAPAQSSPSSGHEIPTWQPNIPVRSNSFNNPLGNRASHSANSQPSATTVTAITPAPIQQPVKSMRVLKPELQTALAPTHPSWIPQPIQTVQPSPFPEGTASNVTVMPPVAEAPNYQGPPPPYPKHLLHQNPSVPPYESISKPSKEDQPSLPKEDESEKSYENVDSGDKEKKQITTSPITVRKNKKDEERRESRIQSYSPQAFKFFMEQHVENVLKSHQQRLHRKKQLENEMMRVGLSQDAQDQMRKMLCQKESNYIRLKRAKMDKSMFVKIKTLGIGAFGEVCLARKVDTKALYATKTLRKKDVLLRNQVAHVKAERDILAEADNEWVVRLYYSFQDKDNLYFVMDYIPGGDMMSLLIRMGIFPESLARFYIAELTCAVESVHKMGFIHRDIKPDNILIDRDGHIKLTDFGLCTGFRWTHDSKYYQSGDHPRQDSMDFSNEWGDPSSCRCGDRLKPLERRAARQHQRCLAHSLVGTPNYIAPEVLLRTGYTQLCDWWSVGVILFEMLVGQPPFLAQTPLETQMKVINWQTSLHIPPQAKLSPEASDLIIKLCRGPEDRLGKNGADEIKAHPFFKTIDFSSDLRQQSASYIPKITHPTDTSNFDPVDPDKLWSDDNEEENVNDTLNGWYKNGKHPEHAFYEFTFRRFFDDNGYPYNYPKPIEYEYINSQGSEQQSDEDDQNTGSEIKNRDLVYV
- test: RBC HotSpot kinase assay (33P-ATP, P81 filter-binding), LATS1
- Format: biochemical
- condition.parameters: Table 28, biochemical kinase assay; read-out: LATS1 IC50
recorded.endpoint: IC50 (nM)
Expressed in nM, but write only the number.

smiles.code | IC50 [nM]
CC(C)(N)c1ccc(-c2ccnc3[nH]cc(Br)c23)cc1 | 24
O=C([C@@H]1CCCN1)N1CCC(c2ccc(-c3ccnc4[nH]cc(F)c34)cc2Cl)CC1 | 10.7
Cc1ccccc1-c1c[nH]c2nccc(-c3ccc(CN)cc3)c12 | 235

Pending compound:
Q. Missing value: IC50, LATS1 (Homo sapiens), entry "C[C@@H]1CN(C2CC3(CNC3)C2)C[C@H](C)[C@@]1(O)c1c(F)cc(-c2ccnc3[nH]cc(F)c23)cc1F" . Fill in?
A. 3.7

====

- assayed.target: LATS1 Kinase-NanoLuc fusion in HEK-293 cells (Homo sapiens, UniProt O95835)
- Construct: host or cells: HEK-293
- test: NanoBRET target engagement assay in transfected HEK-293 cells, LATS1
- Type: cell-based
- condition.parameters: Table 28, NanoBRET, HEK-293 cells; read-out: LATS1 (Cellular) IC50
Strictly below 10 µM in IC50: Condition met. Otherwise: Condition not met.

Solved entries:
compound | assayed.target | label.class
c1cc(-c2ccc3c(c2)CCNC3)c2cc[nH]c2n1 | LATS1 Kinase-NanoLuc fusion in HEK-293 cells (Homo sapiens, UniProt O95835) | Condition not met
NCc1ccc(-c2ccnc3[nH]cc(-c4ccccc4)c23)cc1 | LATS1 Kinase-NanoLuc fusion in HEK-293 cells (Homo sapiens, UniProt O95835) | Condition met
Cc1cc(-c2ccnc3[nH]cc(F)c23)cc(F)c1C1(O)[C@H](C)CN(C2COC2)C[C@@H]1C (some centres unmarked) | LATS1 Kinase-NanoLuc fusion in HEK-293 cells (Homo sapiens, UniProt O95835) | Condition met

Q. IC50 under 10 µM? Item: "CC1(c2ccc(-c3ccnc4[nH]ccc34)cc2)CCNCC1"
A. Condition not met

Q. Please let me know if "Clc1c[nH]c2nccc(-c3ccc(C4CCNCC4)cc3)c12" shows IC50 below 10 µM.
A. Condition met

Q. Hello, I'm reviewing records and need to know if IC50 of c1cc(-c2ccc(C3CC4CCC(C3)N4)cc2)c2cc[nH]c2n1 (centres unmarked) is below 10 µM. Could you check?
A. Condition not met

Q. Item "Cc1cc(-c2ccnc3[nH]cc(F)c23)cc(F)c1[C@@]1(O)[C@H](C)CN(C(=O)[C@H](N)CO)C[C@@H]1C" : IC50 beneath 10 µM, strictly?
A. Condition met

Q. Lab note: confirm whether the reported IC50 for this compound is below 10 µM, equality not counting. compound: "OC1(c2ccc(-c3ccnc4[nH]cc(F)c34)cc2)CCNCC1"
A. Condition not met

Q. Regarding "Cc1cc(-c2ccnc3[nH]cc(F)c23)ncc1[C@@]1(O)[C@H](C)CN(C2CCC2)C[C@@H]1C" , kindly confirm whether its IC50 is beneath 10 µM.
A. Condition not met
